All figures here come from the MegaScale stability set (Tsuboyama et al. 2023).

This section presents variants with their documented folding stability dG values.
B1: r4_43_TrROS_Hall (parent)
chain: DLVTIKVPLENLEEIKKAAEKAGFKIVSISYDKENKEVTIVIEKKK

- Variants of: B1
- protocol: folding stability dG (cDNA display proteolysis); higher = more stable
- measurementParameters: PBS, room temperature
// units = kcal/mol; emit number, no label

Example cases with answers are listed next.
Could you share which folding stability dG value was measured for N11C ?
3

And for I26K ?
1.31

Next:
folding stability dG for K36M ?
3.22

// next record I29W
3.93

Please give the result for A22W too.
4.33

Now consider I40W .
1.82

Again, but for V41K
3.47

Do the same for I42V please
3.46
